Entry source: patent US20170037110A1

Target: T1, HLA-A*02:01 (human)
T1 construct: monomers captured on streptavidin plates; also called MHC class I
Assay: UV peptide exchange ELISA
Metric Name: peptide exchange yield

1. SLIDKLYNI; 20 to 50%
2. ALPLFVITV; 50 to 75%
3. LLLAHIIAL; 20 to 50%
4. ALLEGVNTV; 50 to 75%
5. VLLTFKIFL; 20 to 50%
6. SLLEADPFL; 50 to 75%
7. ALIHPVSTV; 20 to 50%
8. FLFDTKPLIV; 50 to 75%
